compounds and their reported Max ΔF/F0
SYSTEM_NAME: human TAS1R2-WT/TAS1R3-S446N (Homo sapiens, UniProt Q7RTX0+Q8TE23, S446N)
Construct: expressed in transfected cells; host or cells: HEK293T stably expressing Gα16gust44
Sequence (Q8TE23 20-839): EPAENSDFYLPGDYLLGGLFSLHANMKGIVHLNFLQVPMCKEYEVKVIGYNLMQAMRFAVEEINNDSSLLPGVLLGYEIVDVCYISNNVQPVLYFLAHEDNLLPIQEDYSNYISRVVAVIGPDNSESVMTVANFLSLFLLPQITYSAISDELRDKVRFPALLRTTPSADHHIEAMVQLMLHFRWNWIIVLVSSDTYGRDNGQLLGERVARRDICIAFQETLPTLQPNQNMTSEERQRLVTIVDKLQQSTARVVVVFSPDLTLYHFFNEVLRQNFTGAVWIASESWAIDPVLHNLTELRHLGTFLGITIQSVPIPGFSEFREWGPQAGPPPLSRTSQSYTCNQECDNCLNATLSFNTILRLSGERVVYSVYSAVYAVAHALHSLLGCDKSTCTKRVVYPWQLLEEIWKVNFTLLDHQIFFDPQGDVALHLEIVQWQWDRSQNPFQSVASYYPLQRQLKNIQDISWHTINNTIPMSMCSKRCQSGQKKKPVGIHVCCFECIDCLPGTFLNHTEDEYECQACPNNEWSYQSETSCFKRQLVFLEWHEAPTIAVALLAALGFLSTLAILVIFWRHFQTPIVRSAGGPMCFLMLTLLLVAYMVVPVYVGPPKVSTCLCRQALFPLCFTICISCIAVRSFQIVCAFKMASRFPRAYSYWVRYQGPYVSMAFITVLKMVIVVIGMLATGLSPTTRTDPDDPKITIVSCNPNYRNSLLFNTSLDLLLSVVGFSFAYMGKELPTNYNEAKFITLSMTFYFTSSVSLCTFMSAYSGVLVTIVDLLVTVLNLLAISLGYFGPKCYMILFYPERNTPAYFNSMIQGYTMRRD
Sequence (Q7RTX0 21-852 S446N): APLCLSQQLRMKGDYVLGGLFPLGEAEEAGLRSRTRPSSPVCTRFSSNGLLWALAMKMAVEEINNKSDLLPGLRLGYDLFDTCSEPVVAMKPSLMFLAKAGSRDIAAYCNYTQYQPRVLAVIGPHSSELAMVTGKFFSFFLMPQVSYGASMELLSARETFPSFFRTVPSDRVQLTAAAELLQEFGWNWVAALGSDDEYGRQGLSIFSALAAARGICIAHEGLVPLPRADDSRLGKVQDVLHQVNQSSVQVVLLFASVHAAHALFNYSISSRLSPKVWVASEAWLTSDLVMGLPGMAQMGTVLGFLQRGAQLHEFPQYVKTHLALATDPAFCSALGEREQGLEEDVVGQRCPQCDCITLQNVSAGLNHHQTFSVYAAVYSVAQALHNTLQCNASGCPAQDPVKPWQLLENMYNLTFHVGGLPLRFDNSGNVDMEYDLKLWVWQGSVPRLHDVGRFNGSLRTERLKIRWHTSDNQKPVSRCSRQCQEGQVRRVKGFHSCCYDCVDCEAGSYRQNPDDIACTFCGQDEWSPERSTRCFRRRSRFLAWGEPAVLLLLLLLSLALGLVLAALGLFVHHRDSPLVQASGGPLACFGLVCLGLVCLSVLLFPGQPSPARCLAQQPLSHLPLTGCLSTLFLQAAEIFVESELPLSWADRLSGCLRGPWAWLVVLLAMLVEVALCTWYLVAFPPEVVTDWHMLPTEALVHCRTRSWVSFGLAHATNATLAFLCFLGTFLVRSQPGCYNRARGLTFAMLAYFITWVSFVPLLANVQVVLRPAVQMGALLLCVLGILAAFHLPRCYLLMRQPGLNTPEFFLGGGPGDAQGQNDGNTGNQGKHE
PROTOCOL_SUMMARY: Calcium mobilisation assay, TAS1R2-WT with TAS1R3 variant S446N
Assay type: cell-based
RECORDED_CONDITIONS: maximal signal amplitude
Excerpt: The coding sequences for TAS1R2 and TAS1R3 were commercially synthesised, and the human codon was optimised for expression in human cells. […] The HEK293T cells were kindly provided by Jay P. Slack (Givaudan Flavors Corporation; Cincinnati, OH, USA). […] The Ca^2+ changes were expressed as fractional changes in fluorescent light intensity: ΔF/F = (F − F0)/F0, where F was the fluorescent light intensity at each point, and F0 was the value of emitted fluorescent light prior to stimulus application. […]
MEASURED_PARAMETER: Max ΔF/F0

• COc1ccc(CCC(=O)c2c(O)cc(O[C@@H]3O[C@H](CO)[C@@H](O)[C@H](O)[C@H]3O[C@@H]3O[C@@H](C)[C@H](O)[C@@H](O)[C@H]3O)cc2O)cc1O [NHDC, neohesperidin dihydrochalcone] = 1.07 ± 0.06
• C=C(C)[C@@H]1CC=C(/C=N/O)CC1 = 1.42 ± 0.26
• OC[C@H]1O[C@H](O[C@]2(CCl)O[C@H](CCl)[C@@H](O)[C@@H]2O)[C@H](O)[C@@H](O)[C@H]1Cl = 0.68 ± 0.02
• COC(=O)[C@H](Cc1ccccc1)NC(=O)[C@H](CC(=O)O)NCCC(C)(C)C = 0.63 ± 0.02
• C=C1C[C@@]23CC[C@H]4[C@@](C)(CCC[C@@]4(C)C(=O)O[C@@H]4O[C@H](CO)[C@@H](O)[C@H](O[C@@H]5O[C@H](CO)[C@@H](O)[C@H](O)[C@H]5O)[C@H]4O[C@@H]4O[C@H](CO)[C@@H](O)[C@H](O)[C@H]4O)[C@@H]2CC[C@]1(O[C@@H]1O[C@H](CO)[C@@H](O)[C@H](O[C@@H]2O[C@H](CO)[C@@H](O)[C@H](O)[C@H]2O)[C@H]1O[C@@H]1O[C@H](CO)[C@@H](O)[C@H](O)[C@H]1O)C3 [Rebaudioside M, rebaudioside M] = 0.64 ± 0.03
• C[C@H](CC[C@@H](O[C@@H]1O[C@H](CO[C@@H]2O[C@H](CO)[C@@H](O)[C@H](O)[C@H]2O)[C@@H](O)[C@H](O)[C@H]1O[C@@H]1O[C@H](CO)[C@@H](O)[C@H](O)[C@H]1O)C(C)(C)O)[C@H]1CC[C@@]2(C)[C@@H]3CC=C4[C@@H](CC[C@H](O[C@@H]5O[C@H](CO[C@@H]6O[C@H](CO)[C@@H](O)[C@H](O)[C@H]6O)[C@@H](O)[C@H](O)[C@H]5O)C4(C)C)[C@]3(C)[C@H](O)C[C@]12C [Mogroside V, mogroside V] = 0.86 ± 0.01
• CC1=CC(=O)NS(=O)(=O)O1 = 0.19 ± 0.01

* * *

SYSTEM_NAME: human TAS1R2-WT/TAS1R3-WT (Homo sapiens, UniProt Q7RTX0+Q8TE23)
Construct: expressed in transfected cells; host or cells: HEK293T-Gα16gust44
PROTOCOL_SUMMARY: Calcium mobilisation assay, HEK293T-Gα16gust44 cells, human sweet taste receptor WT
Assay type: cell-based
RECORDED_CONDITIONS: TAS1R2-WT + TAS1R3-WT; maximal signal amplitude
Measured Max ΔF/F0, listed per entry for reference.
MEASURED_PARAMETER: Max ΔF/F0

- COC(=O)[C@H](Cc1ccccc1)NC(=O)[C@H](CC(=O)O)NCCC(C)(C)C: 0.56
- C[C@H](CC[C@@H](O[C@@H]1O[C@H](CO[C@@H]2O[C@H](CO)[C@@H](O)[C@H](O)[C@H]2O)[C@@H](O)[C@H](O)[C@H]1O[C@@H]1O[C@H](CO)[C@@H](O)[C@H](O)[C@H]1O)C(C)(C)O)[C@H]1CC[C@@]2(C)[C@@H]3CC=C4[C@@H](CC[C@H](O[C@@H]5O[C@H](CO[C@@H]6O[C@H](CO)[C@@H](O)[C@H](O)[C@H]6O)[C@@H](O)[C@H](O)[C@H]5O)C4(C)C)[C@]3(C)[C@H](O)C[C@]12C [Mogroside V, mogroside V]: 1.28
- CC1=CC(=O)NS(=O)(=O)O1: 0.31
- C=C1C[C@@]23CC[C@H]4[C@@](C)(CCC[C@@]4(C)C(=O)O[C@@H]4O[C@H](CO)[C@@H](O)[C@H](O[C@@H]5O[C@H](CO)[C@@H](O)[C@H](O)[C@H]5O)[C@H]4O[C@@H]4O[C@H](CO)[C@@H](O)[C@H](O)[C@H]4O)[C@@H]2CC[C@]1(O[C@@H]1O[C@H](CO)[C@@H](O)[C@H](O[C@@H]2O[C@H](CO)[C@@H](O)[C@H](O)[C@H]2O)[C@H]1O[C@@H]1O[C@H](CO)[C@@H](O)[C@H](O)[C@H]1O)C3 [Rebaudioside M, rebaudioside M]: 1.12
- C=C(C)[C@@H]1CC=C(/C=N/O)CC1: 1.47
- OC[C@H]1O[C@H](O[C@]2(CCl)O[C@H](CCl)[C@@H](O)[C@@H]2O)[C@H](O)[C@@H](O)[C@H]1Cl: 0.59
- COc1ccc(CCC(=O)c2c(O)cc(O[C@@H]3O[C@H](CO)[C@@H](O)[C@H](O)[C@H]3O[C@@H]3O[C@@H](C)[C@H](O)[C@@H](O)[C@H]3O)cc2O)cc1O [NHDC, neohesperidin dihydrochalcone]: 0.71

Entry source: paper PMC11945486
